Each entry below carries its reported cytotoxicity at 10 µM.
protocol.details: Toxicity liver stage against HepG2, at 10uM
Assay type: cell-based
Parameters: test concentration 10 uM, cell line HepG2-A16-CD81EGFP
condition.details: human, HepG2-A16-CD81EGFP cells; read-out: INHIBITION
Report the figure in % without appending any unit label.

compound: Cc1cc(C)c2ncc(C#N)c(N3CCS(=O)(=O)CC3)c2c1
recorded.measurement: -8.17
//
compound: CN1N=C(C(=O)N(Cc2ccco2)C2CCCC2)CCC1=O
recorded.measurement: -144

**Q:** Please supply the value of reported cytotoxicity at 10 µM for the item C[C@H]1C[C@@H]2CCN(C(=O)c3cccn3C)C[C@H]2O1
**A:** 10.1

**Q:** Please supply the value of reported cytotoxicity at 10 µM for the item CCOCCCNC(=O)CN(c1cccc(F)c1)S(C)(=O)=O
**A:** 7.77

**Q:** Please supply the value of reported cytotoxicity at 10 µM for the item COc1ccc(NC(=O)Cn2nc(C)c(C(C)=O)c2C)cc1
**A:** -3.66

**Q:** Please supply the value of reported cytotoxicity at 10 µM for the item CCN(CC)C(=O)Nc1cc2c(cc1SC)OCCO2
**A:** -7.87

**Q:** Please supply the value of reported cytotoxicity at 10 µM for the item O=C(NC1CCCC1)[C@H]1CC[C@@H]2[C@@H](CCN2c2ncc(F)cn2)O1
**A:** 0.441

**Q:** Please supply the value of reported cytotoxicity at 10 µM for the item CC(=O)N(Cc1noc(C)n1)C1CCN(CC2(O)CCCCC2)C1 (centres undefined)
**A:** 5.69

**Q:** Please supply the value of reported cytotoxicity at 10 µM for the item c1coc(-c2nc3c(c(NCc4n[nH]c5c4CCC5)n2)CCNCC3)c1
**A:** -3.36

**Q:** Please supply the value of reported cytotoxicity at 10 µM for the item CC(C)CC(=O)N1CCN(Cc2csc(-c3ncccn3)n2)CC1
**A:** 8.61

====

Each entry below carries its reported cytotoxicity at 10 µM.
protocol.details: Toxicity liver stage against HepG2, at 10uM
Type: cell-based
Parameters: test concentration 10 uM, cell line HepG2-A16-CD81EGFP
condition.details: human, HepG2-A16-CD81EGFP cells; read-out: INHIBITION
Report the figure in % without appending any unit label.

Solved cases below.
compound: COCCC1COC2(CCN(C(=O)C3CCCCC3)CC2)C1 (stereo not drawn)
cytotoxicity at 10 µM, %: 7.4
//
compound: CNc1nc(C(=O)N2CCCCC2c2ccc(CN(C)C)cc2)cs1 (stereo not drawn)
cytotoxicity at 10 µM, %: -2.86

**Q:** Please supply the value of reported cytotoxicity at 10 µM for the item CN(C)c1ccccc1CN1CCCCC1CNS(C)(=O)=O (stereo not drawn)
**A:** 0.212

====

protocol.details: Toxicity liver stage against HepG2, at 10uM
Type: cell-based
Set-up: test concentration 10 uM, cell line HepG2-A16-CD81EGFP
condition.details: human, HepG2-A16-CD81EGFP cells; read-out: INHIBITION
recorded.metric: cytotoxicity at 10 µM

Solved cases below.
compound: CCOCC1c2c(cnn2CC2CC2)CCN1Cc1nccs1 (stereo not drawn)
recorded.measurement: 85.9%
//
compound: CCN1CCCC1Cn1ccc2c(OC)c(OC)ccc2c1=O (stereo not drawn)
recorded.measurement: -2.78%

Below: the item to evaluate.
**Q:** Please supply the value of reported cytotoxicity at 10 µM for the item CCc1cnc(CN(C)C2CCN(CC3CCOCC3)C2)o1 (stereo not drawn)
**A:** -13.4%

====

protocol.details: Toxicity liver stage against HepG2, at 10uM
Type: cell-based
Set-up: test concentration 10 uM, cell line HepG2-A16-CD81EGFP
condition.details: human, HepG2-A16-CD81EGFP cells; read-out: INHIBITION
Each entry below carries its reported cytotoxicity at 10 µM.

Solved cases below.
compound: O=C(NCCN1CCOCC1)Nc1cc(F)ccc1-n1cccn1
cytotoxicity at 10 µM: -14.9%
--
compound: NCC(=O)N1CCCC(c2ccnc(Nc3cnccn3)n2)C1 (stereo not drawn)
cytotoxicity at 10 µM: 2.66%
--
compound: Cc1cc(C)cc(C(=O)Nc2ccc(CC3CC(=O)NC3=O)cc2)c1 (stereo not drawn)
cytotoxicity at 10 µM: -3%
--
compound: Cc1c(Cl)cccc1NCc1nc2n(n1)CCCCC2
cytotoxicity at 10 µM: 10.6%
--
compound: COc1cccc(C2CC(=O)Nc3c2c(=O)n(C)c2ncnn32)c1 (stereo not drawn)
cytotoxicity at 10 µM: -0.549%
--
compound: Cc1cc(C)c(OCC(=O)NS(=O)(=O)c2c(C)noc2C)c(C)c1
cytotoxicity at 10 µM: -6.64%

**Q:** Please supply the value of reported cytotoxicity at 10 µM for the item CCCc1n[nH]c(C2CN(CCNS(C)(=O)=O)CCO2)n1 (stereo not drawn)
**A:** -0.975%

**Q:** Please supply the value of reported cytotoxicity at 10 µM for the item COCCC(=O)NCCc1nc2cc(-c3ccc(OC)cc3)ncn2n1
**A:** 10.5%

**Q:** Please supply the value of reported cytotoxicity at 10 µM for the item CN(CCCO)Cc1cc(Cl)ccc1OCC(O)CN1CCCCCC1 (stereo not drawn)
**A:** 2.71%

**Q:** Please supply the value of reported cytotoxicity at 10 µM for the item CC(C#N)CSc1ccccc1NCC(=O)NCc1cccs1 (stereo not drawn)
**A:** 2.13%

**Q:** Please supply the value of reported cytotoxicity at 10 µM for the item COc1c(C)cnc(CN(C)C(=O)c2cccnc2N(C)C)c1C
**A:** -12.3%

====

Each entry below carries its reported cytotoxicity at 10 µM.
protocol.details: Toxicity liver stage against HepG2, at 10uM
Assay type: cell-based
Design: test concentration 10 uM, cell line HepG2-A16-CD81EGFP
condition.details: human, HepG2-A16-CD81EGFP cells; read-out: INHIBITION
Report the figure in % without appending any unit label.

Solved cases below.
compound: COCC(=O)NCCc1ccc(I)s1
cytotoxicity at 10 µM [%]: 11.3
--
compound: Fc1ccc2[nH]c(C3CCCN3Cc3c[nH]cn3)nc2c1 (stereo not drawn)
cytotoxicity at 10 µM [%]: 0.786
--
compound: Cc1nc2cc(=O)[nH]n2c(C)c1CNC(=O)c1cnn(C(C)(C)C)c1
cytotoxicity at 10 µM [%]: -4.01
--
compound: CCc1ccc(C(=O)Nc2ccc(CC3CC(=O)NC3=O)cc2)s1 (stereo not drawn)
cytotoxicity at 10 µM [%]: -0.95
--
compound: O=C(Nc1ccccc1N1CCOC1=O)N1CCc2sccc2C1
cytotoxicity at 10 µM [%]: -5.55

**Q:** Please supply the value of reported cytotoxicity at 10 µM for the item O=C(NCCCn1cccn1)C1(c2ccc(F)cc2)CC1
**A:** -6.13

**Q:** Please supply the value of reported cytotoxicity at 10 µM for the item c1csc(CN2CCC3(CC2)CCN(CC2CCOCC2)C3)n1
**A:** 3.83

**Q:** Please supply the value of reported cytotoxicity at 10 µM for the item CCc1ccc(CN2CCN(C(=O)C(C)C)[C@@H]3CS(=O)(=O)C[C@@H]32)cc1
**A:** 2.11

**Q:** Please supply the value of reported cytotoxicity at 10 µM for the item O=C(COCc1nc(-c2ccncc2)no1)NC1CCCCC1
**A:** -8.19

**Q:** Please supply the value of reported cytotoxicity at 10 µM for the item O=C(c1ccoc1)N1CCC2(CCC(=O)N2Cc2ccncc2)CC1
**A:** -1

**Q:** Please supply the value of reported cytotoxicity at 10 µM for the item COc1cccc2cc(CNC(=O)N3CCC(C(N)=O)CC3)oc12
**A:** -6.13

**Q:** Please supply the value of reported cytotoxicity at 10 µM for the item CCOC(=O)[C@H]1CNC[C@@H]1C(=O)OCC
**A:** 6.1

**Q:** Please supply the value of reported cytotoxicity at 10 µM for the item COc1ccc(C(C)N2CCC(C(=O)NC3CC3)CC2)cc1Cl (stereo not drawn)
**A:** -50.6

====

protocol.details: Toxicity liver stage against HepG2, at 10uM
Assay type: cell-based
Parameters: test concentration 10 uM, cell line HepG2-A16-CD81EGFP
condition.details: human, HepG2-A16-CD81EGFP cells; read-out: INHIBITION
Each entry below carries its reported cytotoxicity at 10 µM.
The number alone won't do; follow it with the unit.

Solved cases below.
molecule: O=C([C@@H]1C[C@@H]2CCN(CCc3ccccc3)C[C@H]2O1)N1CCCC1
cytotoxicity at 10 µM: 0.307%

molecule: COCCC(=O)N1CCCC2(CCCN2Cc2ccccc2F)C1 (centres undefined)
cytotoxicity at 10 µM: 8.01%

molecule: Cc1nccc(CNC(=O)N(CCCO)C2CCc3ccccc32)n1 (centres undefined)
cytotoxicity at 10 µM: -27.3%

Below: the item to evaluate.
**Q:** Please supply the value of reported cytotoxicity at 10 µM for the item CNC(=O)[C@@H]1C[C@@H](NC(=O)Cc2cccs2)CN1C1CCOCC1
**A:** 2.7%

Provenance of the data: ChEMBL document CHEMBL4513216
